Experimental protocol: Liver microsome metabolism assay
Particulars: CD1, mouse, liver microsomes
Listing: microsomal CLint at 1 µM of selected compounds
Assay metric: microsomal CLint at 1 µM (µL/min/mg)

[[record]]
compound = "Cc1c(C(F)(F)F)c(=O)[nH]c2cc(CN3CCN(c4cc5c(cn4)C(=O)NC5)CC3)cnc12 [Compound 15]"
observed = 0.75

[[record]]
compound = "CNC(=O)c1ccc(N2CCN(Cc3cnc4c(C)c(C(F)(F)F)c(=O)[nH]c4c3)CC2C#N)cn1 (stereo not drawn) [Compound 72]"
observed = 0.6

[[record]]
compound = "CNC(=O)c1ccc(N2CCN(Cc3cnc4c(C)c(C#N)c(=O)[nH]c4c3)CC2)cn1 [Compound 85]"
observed = 0.86

[[record]]
compound = "CNC(=O)c1ccc(N2CCN(C(C)c3cnc4c(C)c(C(F)(F)F)c(=O)[nH]c4c3)CC2)cn1 (stereo not drawn) [Compound 24]"
observed = 0.4

[[record]]
compound = "Cc1c(C(F)(F)F)c(=O)[nH]c2cc(CN3CCN(c4cc5c(cn4)C(=O)N(C)C5)CC3)cnc12 [Compound 84]"
observed = 0.72

[[record]]
compound = "CNC(=O)c1ccc(N2CCN(Cc3cc4[nH]c(=O)c(C(F)(F)F)c(C)c4cn3)CC2)cn1 [Compound 2]"
observed = 0.39

[[record]]
compound = "CNC(=O)c1ccc(N2CCN(Cc3cc4[nH]c(=O)c(C(F)(F)F)c(C)c4cn3)C[C@H]2C)cn1 [Compound 88]"
observed = 0.84

[[record]]
compound = "CNC(=O)c1ccc(N2CCN(Cc3cnc4c(C)c(C(F)(F)F)c(=O)[nH]c4c3)CC2)cn1 [Compound 1]"
observed = 0.32

[[record]]
compound = "CNC(=O)c1ccc(N2CCN(Cc3cc4[nH]c(=O)c(C(F)(F)F)c(C)c4cn3)[C@H](C)C2)cn1 [Compound 87]"
observed = 1.01

[[record]]
compound = "CNC(=O)c1ccc(N2CCN([C@H](C)c3cnc4c(C)c(C(F)(F)F)c(=O)[nH]c4c3)CC2)cn1 [Compound 90]"
observed = 0.21

[[record]]
compound = "CNC(=O)c1ccc(N2CCN([C@@H](C)c3cnc4c(C)c(C(F)(F)F)c(=O)[nH]c4c3)CC2)cn1 [Compound 91]"
observed = 0.3

[[record]]
compound = "CCc1cc2ncc(CN3CCN(c4ccc(C(=O)NC)nc4)CC3)cc2[nH]c1=O [AZD5305, reference compound]"
observed = 1.23


Reference source: patent US20250051324A1
